- assay-name: Phase 1 multiple ascending dose (MAD) plasma pharmacokinetics
- Type: in vivo, human
- condition-context: human, plasma, oral, 840 mg, 840 mg QD, Day 3, age up to 64 years (n = 7)

smi	unit-symbol	Cmax
CC(C)(C)Oc1cc(CCC(C)(C)N2Cc3ccc(S(C)(=O)=O)cc3C2)ccc1O	ng/mL	813

---

- assay-name: Phase 1 single ascending dose (SAD)/food-effect plasma pharmacokinetics
- Assay type: in vivo, human
- condition-context: human, plasma, oral, 1120 mg, single 1120 mg, fasted (n = 6)
property: Cmax (ng/mL)

smi	property	measured-value
CC(C)(C)Oc1cc(CCC(C)(C)N2Cc3ccc(S(C)(=O)=O)cc3C2)ccc1O	Cmax	1460
